Recorded TGI values for a group of molecules are listed next.
test system: MOLT-4 leukemia; experiment: NCI tumour cell line growth inhibition, 48 h

| molecule | observation_type | assay_value |
| --- | --- | --- |
| CC1SC2=NC3=C(c4ccccc4C3=O)C(c3ccc(Cl)cc3)N2C1=O (stereo not given) | TGI | > 100 µM |
| CC(=O)NC1=C(NCCN(C)C)C(=O)c2ccccc2C1=O | TGI | > 50 µM |

Request: Give recorded TGI. O=C1CCC2CC(C(=O)c3ccccc3)CCC2CN1 (stereo not given) (tested in a mixture with another compound)
Result: > 100 µM

Request: Give recorded TGI. CC(=O)Nc1cc(N(CCOS(C)(=O)=O)CCOS(C)(=O)=O)ccc1N=O
Result: > 100 µM

Request: Give recorded TGI. COC1=CCC=C(C[C@@H]2NCCc3cc(OC)c(OC)cc32)C1
Result: > 100 µM
